All values here come from patent US20240208992A1.

assay target: human F508del-CFTR (Homo sapiens, UniProt P13569, DEL508-508)
Sequence (P13569 with tags, fused parts or gaps DEL508-508): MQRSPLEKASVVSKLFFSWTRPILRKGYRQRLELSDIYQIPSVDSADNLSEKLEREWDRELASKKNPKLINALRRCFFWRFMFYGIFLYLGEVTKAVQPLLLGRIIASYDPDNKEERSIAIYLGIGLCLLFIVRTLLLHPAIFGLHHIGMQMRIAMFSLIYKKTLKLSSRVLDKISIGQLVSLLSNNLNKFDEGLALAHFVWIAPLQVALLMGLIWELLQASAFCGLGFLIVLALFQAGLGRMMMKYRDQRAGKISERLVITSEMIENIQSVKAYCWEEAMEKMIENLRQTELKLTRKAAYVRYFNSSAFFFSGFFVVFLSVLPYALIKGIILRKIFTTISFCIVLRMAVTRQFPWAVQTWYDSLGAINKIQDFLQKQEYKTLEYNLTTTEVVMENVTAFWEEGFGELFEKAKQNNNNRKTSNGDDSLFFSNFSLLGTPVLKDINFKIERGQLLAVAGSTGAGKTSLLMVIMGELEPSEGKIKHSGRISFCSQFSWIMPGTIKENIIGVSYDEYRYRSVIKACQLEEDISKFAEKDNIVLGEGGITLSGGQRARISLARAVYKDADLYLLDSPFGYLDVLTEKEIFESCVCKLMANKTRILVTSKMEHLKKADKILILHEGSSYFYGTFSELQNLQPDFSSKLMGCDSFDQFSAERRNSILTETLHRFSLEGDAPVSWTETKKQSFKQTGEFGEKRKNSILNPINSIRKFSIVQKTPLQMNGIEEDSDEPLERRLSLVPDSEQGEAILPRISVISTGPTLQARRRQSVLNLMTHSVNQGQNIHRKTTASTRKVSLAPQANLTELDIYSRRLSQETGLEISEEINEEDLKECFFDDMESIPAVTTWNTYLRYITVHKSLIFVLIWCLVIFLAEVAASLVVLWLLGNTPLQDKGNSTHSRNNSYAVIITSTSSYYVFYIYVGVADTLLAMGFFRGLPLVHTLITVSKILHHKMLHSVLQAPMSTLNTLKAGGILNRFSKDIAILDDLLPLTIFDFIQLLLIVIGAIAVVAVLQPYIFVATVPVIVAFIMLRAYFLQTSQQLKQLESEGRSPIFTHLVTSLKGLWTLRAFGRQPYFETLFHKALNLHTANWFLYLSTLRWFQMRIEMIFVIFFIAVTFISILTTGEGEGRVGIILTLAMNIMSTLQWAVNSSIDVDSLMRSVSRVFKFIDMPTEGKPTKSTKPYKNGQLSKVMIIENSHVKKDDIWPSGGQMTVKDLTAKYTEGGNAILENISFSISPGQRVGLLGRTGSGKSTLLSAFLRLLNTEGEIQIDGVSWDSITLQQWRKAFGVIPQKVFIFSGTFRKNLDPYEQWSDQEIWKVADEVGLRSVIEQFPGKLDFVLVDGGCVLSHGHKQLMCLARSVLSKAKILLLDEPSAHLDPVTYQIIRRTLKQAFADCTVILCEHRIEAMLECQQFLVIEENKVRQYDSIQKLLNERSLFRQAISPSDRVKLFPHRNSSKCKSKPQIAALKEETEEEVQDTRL
test summary: F508del-CFTR cell surface expression (corrector activity), DiscoveRx ß-galactosidase complementation chemiluminescence assay in recombinant U2OS cell line;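 further: U2OS cells co-expressing ProLink-tagged F508del-CFTR and a membrane-anchored enzyme acceptor, where more surface CFTR restores β-galactosidase activity measured by chemiluminescence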
settings: U2OS, in relation to Emax of corrector lumacaftor (=100%); arithmetic mean values
observed property: Emax (%)
Numbers only; they are read as %.

QUERY: Please report Emax for the following compound: COc1nccc2c1C(=O)N[C@H](C(=O)NCCc1noc(C3CC3)n1)CC(=O)N(C)[C@@H](CC(C)C)C(=O)N(C)[C@H](CCc1nc(-c3ccccc3)no1)C(=O)N[C@H](Cc1ccccc1)CO2
RESULT: 347

QUERY: State its Emax for this compound: COc1nccc2c1C(=O)N[C@H](C(=O)NCCc1cc(C3CC3)no1)CC(=O)N(C)[C@@H](CC(C)C)C(=O)N1CCCC[C@@H]1C(=O)N[C@H](Cc1ccccc1)CO2
RESULT: 352

QUERY: Read off the recorded Emax for CC(C)C[C@H]1C(=O)N(C)[C@H](C)C(=O)N[C@H](Cc2ccccc2)COc2ccc3nccn3c2C(=O)N[C@H](C(=O)NCCc2cc(C3CC3)no2)CC(=O)N1C
RESULT: 350

QUERY: For the compound Cc1noc2c3c(ccc12)OC[C@@H](Cc1ccccc1)NC(=O)[C@H]1CCCCN1C(=O)[C@H](CC(C)C)N(C)C(=O)C[C@@H](C(=O)NCCc1c(F)cccc1F)NC3=O , give its reported Emax.
RESULT: 178

QUERY: Specify Emax for Cc1cc(CCNC(=O)[C@@H]2CC(=O)N(C)[C@@H](CC(C)C)C(=O)N3CCCC[C@H]3C(=O)N[C@H](Cc3ccccc3)COc3cnc4ccc(Cl)cc4c3C(=O)N2)on1 and stop.
RESULT: 318
